- System: BT-549 breast
- protocol description: NCI-60 one-dose screen, 48 h (100 = growth as untreated, 0 = no growth, -100 = all killed)
- assay setup: 10 µM unless noted
About 83,000 compounds went through this panel and 20% of them were active in at least one assay; those are over-represented in the sample as a whole.
Label fulfilled when growth is at or above 30%; anything below gets not fulfilled.

In [3]: df
Out[3]:
                                   molecule       category
0  CC(=O)C(c1c(O)c2ccccc2oc1=O)c1cc(=O)oc2c1ccc1ccccc12 (stereo not given)      fulfilled
1                   O=C(O)C(Cl)(Cl)C(F)(F)F      fulfilled
2  COc1ccc(N(CC(=O)NCCC[Te]c2ccccc2)C(=O)CNC(=O)OC(C)(C)C)cc1  not fulfilled
3  Fc1ccc2c(c1)c(-c1nc(-c3c[nH]c4ncccc34)cs1)cn2CCN1CCOCC1      fulfilled
4                      O=NN1CCCc2cccc(O)c21      fulfilled
5                 CCCCCCCC[n+]1ccc2ccccc2c1      fulfilled
6           ClCCN(CCCl)c1ccc(OCc2ccccc2)cc1      fulfilled
7  CN1C(=O)C23CC4(C56CC78SSC(CO)(C(=O)N7C5Nc5ccccc56)N(C)C8=O)c5ccccc5NC4N2C(=O)C1(CO)SS3 (stereo not given)  not fulfilled
8  CN(C)C1C(=O)C(C(N)=O)=C(O)C2(O)C(=O)C3=C(O)c4c(O)cccc4C(C)(O)C3CC12.[Cl][Sb]([Cl])[Cl] (stereo not given)  not fulfilled
9  Cc1cc(NC(=O)NCc2ccc(N3C(N)=NC(N)=NC3(C)C)cc2)ccc1S(=O)(=O)F      fulfilled

====

- Test system: SK-MEL-28 melanoma
- protocol description: NCI-60 one-dose screen, 48 h (100 = growth as untreated, 0 = no growth, -100 = all killed)
- assay setup: 10 µM unless noted
About 83,000 compounds went through this panel and 20% of them were active in at least one assay; those are over-represented in the sample as a whole. Activity calls are given as the source filed them. The calls were made as follows: active = growth percent below 10; inactive = the rest.
Known growth of a selection of compounds
readout kind: growth

compound	target entity	observed value
O=C1Nc2ccccc2C2c3cccn3-c3ccccc3CN12 (stereo unspecified)	SK-MEL-28 melanoma	66.6% (inactive)
C=CC[PH+](c1ccccc1)c1ccccc1.C=CC[PH+](c1ccccc1)c1ccccc1.[Cl][Pt][Cl]	SK-MEL-28 melanoma	28.4% (inactive)
Cc1ccc(C(Cc2ccccc2)NCCO)cc1 (stereo unspecified)	SK-MEL-28 melanoma	61.9% (inactive)
ClCCN(CCCl)Cc1ccc(Nc2ccnc3cc(Cl)ccc23)cc1	SK-MEL-28 melanoma	67.1% (inactive)
CN(C)C(=O)Oc1ccc(Br)cc1	SK-MEL-28 melanoma	104% (inactive)
CCCCN1CCCC[C@@H]1C(=O)N[C@H](C(=O)N(C)[C@H](C[C@@H](OC(C)=O)c1nc(C(=O)NC2CCC(C(=O)OC)CC2)cs1)C(C)C)C(C)C (stereo partly specified)	SK-MEL-28 melanoma	72.1% (inactive)
O=Cc1cn(Cc2ccc(Cl)cc2)c2ccccc12	SK-MEL-28 melanoma	96.4% (inactive)
CC(C)(N)Cc1ccccc1	SK-MEL-28 melanoma	116% (inactive)
Fc1ccc(N2COOC3(OOC2)C2CC4CC(C2)CC3C4)cc1	SK-MEL-28 melanoma	100% (inactive)
COc1ccc(/C(C)=C(\c2ccc(OCCN3CCOCC3)cc2)c2ccc(OC(=O)Cc3ccccc3)cc2)cc1	SK-MEL-28 melanoma	108% (inactive)
O=C1C=C2C(=CCOC2O)O1 (stereo unspecified)	SK-MEL-28 melanoma	37.7% (inactive)
